Test system: Beet Armyworm (BAW) (Spodoptera exigua)
experiment: Bioassay on beet armyworm (BAW), 128-well diet tray assay
Type: in vivo
recorded_conditions: Spodoptera exigua; Beet armyworm, 50 μg/cm^2; read-out: % Mortality BAW 50 μg/cm^2
Give measured pest or weed control at 50 µg/cm2, 50 µg/cm2 for each item. Keep answers brief.

Entry under test: COc1cc(Cl)c(/N=C(/N/N=C/c2ccc(-c3ncn(-c4ccc(OC(F)(F)F)cc4)n3)cc2)SCOC(=O)OC(C)C)c(Cl)c1 [Compound 33C] . Its pest or weed control at 50 µg/cm2, 50 µg/cm2 was 50 to 100%

Entry under test: FC(F)(F)Oc1ccc(-n2cnc(-c3ccc(/C=N/N=C4\SCCCN4c4ccccc4OC(F)(F)F)cc3)n2)cc1 [Compound 199C] . Its pest or weed control at 50 µg/cm2, 50 µg/cm2 was 50 to 100%

Entry under test: Cc1cccc(C)c1/N=C1\SCC(=O)N1/N=C/c1ccc(-c2ncn(-c3ccc(OC(F)(F)F)cc3)n2)cc1 [Compound 81C] . Its pest or weed control at 50 µg/cm2, 50 µg/cm2 was 50 to 100%

Entry under test: COc1ccccc1N1CCS/C1=N\N=C\c1ccc(-c2ncn(-c3ccc(OC(F)(F)F)cc3)n2)cc1 [Compound 140C] . Its pest or weed control at 50 µg/cm2, 50 µg/cm2 was 50 to 100%

###

Tested on: Beet Armyworm (BAW) (Spodoptera exigua)
experiment: Bioassay on beet armyworm (BAW), 128-well diet tray assay
Format: in vivo
recorded_conditions: Spodoptera exigua; Beet armyworm, 50 μg/cm^2; read-out: % Mortality BAW 50 μg/cm^2
reported_property: pest or weed control at 50 µg/cm2, 50 µg/cm2

Entry under test: CC(C)(C)c1ccccc1N1C(=O)CCS/C1=N\N=C\c1ccc(-c2ncn(-c3ccc(OC(F)(F)F)cc3)n2)cc1 [Compound 232C] . Its pest or weed control at 50 µg/cm2, 50 µg/cm2 was 50 to 100%

Entry under test: Cc1cccc(C)c1/N=C(/N/N=C/c1ccc(-c2ncn(-c3ccc(OC(F)(F)F)cc3)n2)cc1)SCC(=O)NC[C@@H]1CCCN(C(=O)OC(C)(C)C)C1 [Compound 56C] . Its pest or weed control at 50 µg/cm2, 50 µg/cm2 was 50 to 100%

Entry under test: CC(C)(C)c1ccccc1N1C(=O)CS/C1=N\N=C\c1ccc(-c2ncn(-c3ccc(OC(F)(F)F)cc3)n2)cc1 [Compound 125C] . Its pest or weed control at 50 µg/cm2, 50 µg/cm2 was 50 to 100%

Entry under test: CC(C)Cc1ccccc1N1CCCS/C1=N\N=C\c1ccc(-c2ncn(-c3ccc(OC(F)(F)F)cc3)n2)cc1 [Compound 193C] . Its pest or weed control at 50 µg/cm2, 50 µg/cm2 was 50 to 100%

Entry under test: Cc1cccc(C)c1/N=C(/N/N=C/c1ccc(-c2ncn(-c3ccc(OC(F)(F)F)cc3)n2)cc1)SCc1ccc(C(=O)O)cc1 [Compound 6C] . Its pest or weed control at 50 µg/cm2, 50 µg/cm2 was 50 to 100%

Entry under test: Cc1cccc(C)c1/N=C(/N/N=C/c1ccc(-c2ncn(-c3ccc(OC(F)(F)F)cc3)n2)cc1)SCC(=O)NCCCNC(=O)OC(C)(C)C [Compound 58C] . Its pest or weed control at 50 µg/cm2, 50 µg/cm2 was 50 to 100%

Entry under test: Cc1cccc(C)c1/N=C(/N/N=C/c1ccc(-c2ncn(-c3ccc(OC(F)(F)F)cc3)n2)cc1)SCOC(=O)OC(C)C [Compound 24C] . Its pest or weed control at 50 µg/cm2, 50 µg/cm2 was 50 to 100%

Entry under test: Cc1cccc(C)c1N1CS/C1=N\N=C\c1ccc(-c2ncn(-c3ccc(OC(F)(F)F)cc3)n2)cc1 [Compound 241C] . Its pest or weed control at 50 µg/cm2, 50 µg/cm2 was 50 to 100%

Entry under test: CC(=O)OCS/C(=N\c1c(C)cccc1C)N/N=C/c1ccc(-c2ncn(-c3ccc(OC(F)(F)F)cc3)n2)cc1 [Compound 31C] . Its pest or weed control at 50 µg/cm2, 50 µg/cm2 was 50 to 100%

Entry under test: CC(F)(F)Oc1ccccc1N1C(=O)CCS/C1=N\N=C\c1ccc(-c2ncn(-c3ccc(OC(F)(F)F)cc3)n2)cc1 [Compound 229C] . Its pest or weed control at 50 µg/cm2, 50 µg/cm2 was 50 to 100%

Entry under test: Cc1cccc(C)c1/N=C(/N/N=C/c1ccc(-c2ncn(-c3ccc(OC(F)(F)F)cc3)n2)cc1)SCc1cc2c(C(F)(F)F)nn(C)c2s1 [Compound 19C] . Its pest or weed control at 50 µg/cm2, 50 µg/cm2 was 50 to 100%

Entry under test: CS/C(=N\c1ccc(N(C)C)cc1)N/N=C/c1ccc(-c2ncn(-c3ccc(OC(F)(F)F)cc3)n2)cc1 [Compound 1C] . Its pest or weed control at 50 µg/cm2, 50 µg/cm2 was 50 to 100%

Entry under test: O=C1CCS/C(=N\N=C\c2ccc(-c3ncn(-c4ccc(OC(F)(F)F)cc4)n3)cc2)N1c1c(Cl)cccc1C(F)(F)F [Compound 228C] . Its pest or weed control at 50 µg/cm2, 50 µg/cm2 was 50 to 100%

Entry under test: COc1cc(C)c(/N=C(\N/N=C/c2ccc(-c3ncn(-c4ccc(C(F)(F)F)cc4)n3)cc2)SCOC(=O)C(C)C)c(C)c1 [Compound 46C] . Its pest or weed control at 50 µg/cm2, 50 µg/cm2 was 50 to 100%

Entry under test: Cc1cccc(C(C)C)c1N1C(=O)CS/C1=N\N=C\c1ccc(-c2ncn(-c3ccc(OC(F)(F)F)cc3)n2)cc1 [Compound 238C] . Its pest or weed control at 50 µg/cm2, 50 µg/cm2 was 50 to 100%

Entry under test: COc1ccccc1N1CCCS/C1=N\N=C\c1ccc(-c2ncn(-c3ccc(OC(F)(F)F)cc3)n2)cc1 [Compound 191C] . Its pest or weed control at 50 µg/cm2, 50 µg/cm2 was 50 to 100%

Entry under test: Cc1cccc(C)c1/N=C(/N/N=C/c1ccc(-c2ncn(-c3ccc(OC(F)(F)F)cc3)n2)cc1)SCOC(=O)C1CCCC1 [Compound 35C] . Its pest or weed control at 50 µg/cm2, 50 µg/cm2 was 50 to 100%

Entry under test: COc1ccc(N2CCCS/C2=N\N=C\c2ccc(-c3ncn(-c4ccc(OC(F)(F)F)cc4)n3)cc2)cc1 [Compound 202C] . Its pest or weed control at 50 µg/cm2, 50 µg/cm2 was 50 to 100%

Entry under test: COc1cc(C)c(/N=C(/N/N=C/c2ccc(-c3ncn(-c4ccc(OC(F)(F)F)cc4)n3)cc2)SCC(=O)O)c(C)c1 [Compound 48C] . Its pest or weed control at 50 µg/cm2, 50 µg/cm2 was 50 to 100%

Entry under test: CCC1CS/C(=N\N=C\c2ccc(-c3ncn(-c4ccc(OC(F)(F)F)cc4)n3)cc2)N1c1c(C)cccc1Cl (centres unmarked) [Compound 167C] . Its pest or weed control at 50 µg/cm2, 50 µg/cm2 was 50 to 100%

Entry under test: COc1ccc(C(C)/N=C(/N/N=C/c2ccc(-c3ncn(-c4ccc(OC(F)(F)F)cc4)n3)cc2)SCC(=O)O)cc1F (centres unmarked) [Compound 53C] . Its pest or weed control at 50 µg/cm2, 50 µg/cm2 was 0 to 50%

Entry under test: Cc1cccc(C)c1-n1c(-c2ccc(OC(F)(F)F)cc2)cs/c1=N\N=C\c1ccc(-c2ncn(-c3ccc(OC(F)(F)F)cc3)n2)cc1 [Compound 78C] . Its pest or weed control at 50 µg/cm2, 50 µg/cm2 was 50 to 100%

Entry under test: Cc1cccc(C)c1/N=C(/N/N=C/c1ccc(-c2ncn(-c3ccc(OC(F)(F)F)cc3)n2)cc1)SCOC(=O)C(C)(C)C [Compound 36C] . Its pest or weed control at 50 µg/cm2, 50 µg/cm2 was 50 to 100%

Entry under test: COc1cc(C)c(N2C(=O)CSC2=NN=Cc2ccc(-c3ncn(-c4ccc(OC(F)(F)F)cc4)n3)cc2)c(C)c1 (stereo in doubt) [Compound 69C] . Its pest or weed control at 50 µg/cm2, 50 µg/cm2 was 50 to 100%

Entry under test: Cc1cccc(C)c1/N=C(/N/N=C/c1ccc(-c2ncn(-c3ccc(OC(F)(F)F)cc3)n2)cc1)SCC(=O)N1CCNCC1 [Compound 67C] . Its pest or weed control at 50 µg/cm2, 50 µg/cm2 was 50 to 100%

Entry under test: CC(C)Cc1ccccc1N1CCS/C1=N\N=C\c1ccc(-c2ncn(-c3ccc(OC(F)(F)F)cc3)n2)cc1 [Compound 150C] . Its pest or weed control at 50 µg/cm2, 50 µg/cm2 was 50 to 100%

Recorded values, source patent US9018388B2.
